Test system: forty-four human cancer cell lines
Test: Cell proliferation assay (ATPlite, 72 hours) in the 44 cell line Oncolines panel
Type: cell-based
Conditions: Homo sapiens, NCI-H82, read-out: cell panel IC50, NCI-H82
Note to self: use Fulfilled only for IC50 readings below 7 µM; a reading exactly at 7 µM still gets Not fulfilled.

# count of solved cases: 5
1) CNC(=O)c1cc(Oc2ccc(NC(=O)Nc3ccc(Cl)c(C(F)(F)F)c3)cc2)ccn1 = Not fulfilled
2) CCN(CC)CCNC(=O)c1c(C)[nH]c(/C=C2\C(=O)Nc3ccc(F)cc32)c1C = Fulfilled
3) Cc1nc(Nc2ncc(C(=O)Nc3c(C)cccc3Cl)s2)cc(N2CCN(CCO)CC2)n1 = Not fulfilled
4) O=S(=O)(c1cccc2cnccc12)N1CCCNCC1 = Not fulfilled
5) Cc1ccc(C(=O)Nc2ccc(CN3CCN(C)CC3)c(C(F)(F)F)c2)cc1C#Cc1cnc2cccnn12 = Fulfilled

Then there is this compound:
Problem: For the compound COc1cc2nccc(Oc3ccc(NC(=O)C4(C(=O)Nc5ccc(F)cc5)CC4)cc3)c2cc1OC [cabozantinib] , is IC50 under 7 µM?
Not fulfilled

* * *

%-inhibition, ARG: recorded values
Molecular target: panel of more than 300 wild-type and mutant kinases (313 kinase panel) (Homo sapiens, UniProt P42684)
Test: Kinase profiling in a biochemical assay panel (mobility shift assays and ELISA), %-inhibition at 1 μM; selectivity entropy
Conditions: kinase ARG; 1 μM compound
Unit % implied. Number only.

1) CCCS(=O)(=O)Nc1ccc(F)c(C(=O)c2c[nH]c3ncc(-c4ccc(Cl)cc4)cc23)c1F = 7
2) COc1cc2nccc(Oc3ccc(NC(=O)C4(C(=O)Nc5ccc(F)cc5)CC4)cc3)c2cc1OC [cabozantinib] = 29
3) Cc1ccc(C(=O)Nc2ccc(CN3CCN(C)CC3)c(C(F)(F)F)c2)cc1C#Cc1cnc2cccnn12 = 100

// fetch %-inhibition, ARG given entry `CC(=O)Nc1cccc(-n2c(=O)n(C3CC3)c(=O)c3c(Nc4ccc(I)cc4F)n(C)c(=O)c(C)c32)c1`
-4

// fetch %-inhibition, ARG given entry `O=S(=O)(c1cccc2cnccc12)N1CCCNCC1`
-7

* * *

Target: panel of more than 300 wild-type and mutant kinases (313 kinase panel) (Homo sapiens)
Assay: Kinase profiling in a biochemical assay panel (mobility shift assays and ELISA), %-inhibition at 1 μM; selectivity entropy
Conditions: kinase Haspin; compound at 1 μM
%-inhibition of Haspin: recorded values
Just so you know, I need the unit written after the number.

Recorded results for 5 compounds are shown here.
1) Cc1cn(-c2cc(NC(=O)c3ccc(C)c(Nc4nccc(-c5cccnc5)n4)c3)cc(C(F)(F)F)c2)cn1 = 2.56%
2) N#CC[C@H](C1CCCC1)n1cc(-c2ncnc3[nH]ccc23)cn1 = -6.62%
3) Cc1ccc(Nc2nccc(N(C)c3ccc4c(C)n(C)nc4c3)n2)cc1S(N)(=O)=O = -0.746%
4) COc1cc2nccc(Oc3ccc(NC(=O)C4(C(=O)Nc5ccc(F)cc5)CC4)cc3)c2cc1OC [cabozantinib] = 8%
5) CO[C@H]1C[C@@H]2CC[C@@H](C)[C@@](O)(O2)C(=O)C(=O)N2CCCC[C@H]2C(=O)O[C@H]([C@H](C)C[C@@H]2CC[C@@H](OCCO)[C@H](OC)C2)CC(=O)[C@H](C)/C=C(\C)[C@@H](O)[C@@H](OC)C(=O)[C@H](C)C[C@H](C)/C=C/C=C/C=C/1C = -0.358%

Shift focus to the following entry.
Retrieve %-inhibition of Haspin on panel of more than 300 wild-type and mutant kinases (313 kinase panel) (Homo sapiens); query `CO[C@H]1C[C@@H]2CC[C@@H](C)[C@@](O)(O2)C(=O)C(=O)N2CCCC[C@H]2C(=O)O[C@H]([C@H](C)C[C@@H]2CC[C@@H](OC(=O)C(C)(CO)CO)[C@H](OC)C2)CC(=O)[C@H](C)/C=C(\C)[C@@H](O)[C@@H](OC)C(=O)[C@H](C)C[C@H](C)/C=C/C=C/C=C/1C`
3%

Attribution: paper PMC3961306
